Every entry's value here was drawn from patent US5015661A.

targetDesc: superoxide-dependent, iron-promoted lipid peroxidation of native rat heart cardiac lipid liposomes
experimentSummary: Lipid peroxidation inhibition (in vitro testing of antiperoxidative agents, ANTI-OX), hypoxanthine-xanthine oxidase-Fe3+.ADP, rat cardiac liposomes, MDA equivalents
Type: biochemical
testParameters: 60 min, 37° C., screened at 1.0 μM, IC50 determined if inhibition ≥ 50%, read-out: ANTI-OX IC-50
experimentalEndpoint: IC50 (nM)

Use these answered entries as a reference point.
[
  {
    "compound": "Cc1c(C)c2c(c(C)c1O)CCC(C)(C#Cc1ccccc1)O2 (racemic)",
    "IC50 / nM": 650
  },
  {
    "compound": "Cc1c(C)c2c(c(C)c1O)CCC(C)(C#Cc1cccs1)O2 (racemic)",
    "IC50 / nM": 900
  },
  {
    "compound": "COc1cc(CO)cc2cc(C3(C)CCc4c(C)c(O)c(C)c(C)c4O3)oc12 (racemic)",
    "IC50 / nM": 850
  }
]

P: Cc1c(C)c2c(c(C)c1O)CCC(C)(C#Cc1ccc3c(c1)N(C)C(=O)CO3)O2 (centres unmarked)
Q: Cc1c(C)c2c(c(C)c1O)CCC(C)(CCc1cccnc1)O2 (racemic)
Input line: Param metric = IC50; output whichever of P , Q has the minimum value. Please identify the chosen entry by its label.
Output line: Q
(Q: 500 nM, P: 750 nM)
